- System: 648629-189-R-J1-PDC spheroids with HUVEC/MSC, viability
- measurement description: Anticancer human tumor 648629-189-R-J1-PDC patient-derived bladder carcinoma cell line growth inhibition [PI3K]
- stated conditions: second compound 0.01 µM; first compound 3.16 µM; stronger effect = lower value
Just a reminder that ties go to Condition not met: only viability, T/C strictly below 90% counts as Condition met.

Threshold test, viability, T/C < 90%: CC1(C)CCC(Nc2ncc(C(F)(F)F)c(-c3c[nH]c4c(P(C)(C)=O)c(C#N)ccc34)n2)CN1 (stereo unspecified) + COc1c(OCCCN2CCOCC2)ccc2c3n(c(=NC(=O)c4cnc(N)nc4)nc12)CCN3 Condition met

New cases:
Threshold test, viability, T/C < 90%: C#Cc1c(F)ccc2cc(O)cc(-c3ncc4c(N5CC6CCC(C5)N6)nc(OCC56CCCN5CC(F)C6)nc4c3F)c12 (stereo unspecified) + CC(Nc1ccc2c(c1)OCCn1cc(N3C(=O)OCC3C(F)F)nc1-2)C(N)=O Condition not met

Threshold test, viability, T/C < 90%: C=CC(=O)N1CCN(c2nc(=O)n(-c3c(C)ccnc3C(C)C)c3nc(-c4c(O)cccc4F)c(F)cc23)C(C)C1 (stereo unspecified) + COc1c(OCCCN2CCOCC2)ccc2c3n(c(=NC(=O)c4cnc(N)nc4)nc12)CCN3 Condition not met

Threshold test, viability, T/C < 90%: CC1(C)CCC(CN2CCN(c3ccc(C(=O)NS(=O)(=O)c4ccc(NCC5CCOCC5)c([N+](=O)[O-])c4)c(Oc4cnc5[nH]ccc5c4)c3)CC2)=C(c2ccc(Cl)cc2)C1 + CC(Nc1ccc2c(c1)OCCn1cc(N3C(=O)OCC3C(F)F)nc1-2)C(N)=O Condition met

Threshold test, viability, T/C < 90%: C#Cc1c(F)ccc2cc(O)cc(-c3ncc4c(N5CC6CCC(C5)N6)nc(OCC56CCCN5CC(F)C6)nc4c3F)c12 (stereo unspecified) + COc1c(OCCCN2CCOCC2)ccc2c3n(c(=NC(=O)c4cnc(N)nc4)nc12)CCN3 Condition not met

====

- System: 648629-189-R-J1-PDC spheroids with HUVEC/MSC, viability
- measurement description: Anticancer human tumor 648629-189-R-J1-PDC cell line growth inhibition [PI3K];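 further: spheroids exposed to agents for seven days before reading; percent of vehicle control luminescence where 100% = DMSO treated spheroids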
- stated conditions: compound 0.0316 µM; stronger effect = lower value
Field: viability, T/C. Provide a value for each of the molecules that follow.

Observe how each entry below is paired with its result.
So for C#Cc1c(F)ccc2cc(O)cc(-c3ncc4c(N5CC6CCC(C5)N6)nc(OCC56CCCN5CC(F)C6)nc4c3F)c12 (stereo not given) , the logged viability, T/C turned out to be 105% [middle of 4 runs]

So for CC(C)n1nc(-c2ccc3oc(N)nc3c2)c2c(N)ncnc21 , the logged viability, T/C turned out to be 78.6% [middle of 4 runs]

So for CC(Cn1ccc(-c2ccc(C#N)c(Cl)c2)n1)NC(=O)c1cc(C(C)O)[nH]n1 (stereo not given) , the logged viability, T/C turned out to be 108% [middle of 4 runs]

Look up viability, T/C for the entries below, preserving their order.
1. CCN1CCN(Cc2ccc(Nc3ncc(F)c(-c4cc(F)c5nc(C)n(C(C)C)c5c4)n3)nc2)CC1
2. CC(=O)c1c(C)c2cnc(Nc3ccc(N4CCNCC4)cn3)nc2n(C2CCCC2)c1=O

["103% [middle of 4 runs]", "100% [middle of 4 runs]"]

====

Field: viability, T/C. Provide a value for each of the compounds that follow.
- Tested on: 648629-189-R-J1-PDC spheroids with HUVEC/MSC, viability
- measurement description: Anticancer human tumor 648629-189-R-J1-PDC cell line growth inhibition [PI3K];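 further: spheroids exposed to agents for seven days before reading; percent of vehicle control luminescence where 100% = DMSO treated spheroids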
- stated conditions: second compound 1 µM; first compound 0.316 µM; stronger effect = lower value
Give bare numbers, in %.

Tested system 648629-189-R-J1-PDC spheroids with HUVEC/MSC, viability; viability, T/C recorded for CC1(C)CCC(CN2CCN(c3ccc(C(=O)NS(=O)(=O)c4ccc(NCC5CCOCC5)c([N+](=O)[O-])c4)c(Oc4cnc5[nH]ccc5c4)c3)CC2)=C(c2ccc(Cl)cc2)C1 + CC(Nc1ncnc2nc[nH]c12)c1cc2cccc(Cl)c2c(=O)n1-c1ccccc1 was 102

Look up viability, T/C for the entries below, preserving their order.
1. C[C@@H](NC(=O)c1ncnc(N)c1Cl)c1ncc(C(=O)Nc2cc(C(F)(F)F)c(Cl)cn2)s1 + Cc1nc(NC(=O)N2CCCC2C(N)=O)sc1-c1ccnc(C(C)(C)C(F)(F)F)c1
2. CCCS(=O)(=O)Nc1ccc(F)c(C(=O)c2c[nH]c3ncc(-c4ccc(Cl)cc4)cc23)c1F + COc1c(OCCCN2CCOCC2)ccc2c3n(c(=NC(=O)c4cnc(N)nc4)nc12)CCN3
3. CCN1CCN(Cc2ccc(Nc3ncc(F)c(-c4cc(F)c5nc(C)n(C(C)C)c5c4)n3)nc2)CC1 + COc1c(OCCCN2CCOCC2)ccc2c3n(c(=NC(=O)c4cnc(N)nc4)nc12)CCN3
4. CC1(C)CCC(Nc2ncc(C(F)(F)F)c(-c3c[nH]c4c(P(C)(C)=O)c(C#N)ccc34)n2)CN1 (stereo not given) + CC(Nc1ncnc2nc[nH]c12)c1cc2cccc(Cl)c2c(=O)n1-c1ccccc1
5. Cn1ncc(Cl)c1-c1cc(C(=O)NC(CN)Cc2cccc(F)c2)sc1Cl (stereo not given) + CC(Nc1ccc2c(c1)OCCn1cc(N3C(=O)OCC3C(F)F)nc1-2)C(N)=O
6. C=CC(=O)N1CCN(c2nc(=O)n(-c3c(C)ccnc3C(C)C)c3nc(-c4c(O)cccc4F)c(F)cc23)C(C)C1 (stereo not given) + COc1c(OCCCN2CCOCC2)ccc2c3n(c(=NC(=O)c4cnc(N)nc4)nc12)CCN3

[78, 3.84, 6.23, 29.8, 37.3, 4.67]

Look up viability, T/C for the entries below, preserving their order.
1. CC(C)NCC(C(=O)N1CCN(c2ncnc3c2C(C)CC3O)CC1)c1ccc(Cl)cc1 (stereo not given) + Cc1nc(NC(=O)N2CCCC2C(N)=O)sc1-c1ccnc(C(C)(C)C(F)(F)F)c1
2. CNC(=O)c1ccc(N2C(=S)N(c3ccc(C#N)c(C(F)(F)F)c3)C(=O)C2(C)C)cc1F + Cc1nc(NC(=O)N2CCCC2C(N)=O)sc1-c1ccnc(C(C)(C)C(F)(F)F)c1

1. 57.1
2. 76.7

Tested system 648629-189-R-J1-PDC spheroids with HUVEC/MSC, viability; viability, T/C recorded for CNC(=O)c1ccc(N2C(=S)N(c3ccc(C#N)c(C(F)(F)F)c3)C(=O)C2(C)C)cc1F + CC(Nc1ncnc2nc[nH]c12)c1cc2cccc(Cl)c2c(=O)n1-c1ccccc1 was 100

====

- Tested on: 648629-189-R-J1-PDC spheroids with HUVEC/MSC, viability
- measurement description: Anticancer human tumor 648629-189-R-J1-PDC cell line growth inhibition [PI3K];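 further: spheroids exposed to agents for seven days before reading; percent of vehicle control luminescence where 100% = DMSO treated spheroids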
- stated conditions: second compound 0.01 µM; first compound 0.0316 µM; stronger effect = lower value
Field: viability, T/C. Provide a value for each of the compounds that follow.
Answers are plain numbers, in %.

Observe how each entry below is paired with its result.
So for CCN1CCN(Cc2ccc(Nc3ncc(F)c(-c4cc(F)c5nc(C)n(C(C)C)c5c4)n3)nc2)CC1 + COc1c(OCCCN2CCOCC2)ccc2c3n(c(=NC(=O)c4cnc(N)nc4)nc12)CCN3 , the logged viability, T/C turned out to be 98.9

So for CC1(C)CCC(CN2CCN(c3ccc(C(=O)NS(=O)(=O)c4ccc(NCC5CCOCC5)c([N+](=O)[O-])c4)c(Oc4cnc5[nH]ccc5c4)c3)CC2)=C(c2ccc(Cl)cc2)C1 + CC(Nc1ccc2c(c1)OCCn1cc(N3C(=O)OCC3C(F)F)nc1-2)C(N)=O , the logged viability, T/C turned out to be 122

From here, focus on the item given below.
So for Cn1ncc(Cl)c1-c1cc(C(=O)NC(CN)Cc2cccc(F)c2)sc1Cl (stereo not drawn) + CC(Nc1ccc2c(c1)OCCn1cc(N3C(=O)OCC3C(F)F)nc1-2)C(N)=O , the logged viability, T/C turned out to be 88.8

====

Field: viability, T/C. Provide a value for each of the compounds that follow.
- Tested on: 648629-189-R-J1-PDC spheroids with HUVEC/MSC, viability
- measurement description: Anticancer human tumor 648629-189-R-J1-PDC cell line growth inhibition [PI3K];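 further: spheroids exposed to agents for seven days before reading; percent of vehicle control luminescence where 100% = DMSO treated spheroids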
- stated conditions: second compound 0.1 µM; first compound 0.0316 µM; stronger effect = lower value
One number for each entry, in %.

Observe how each entry below is paired with its result.
So for CC(Cn1ccc(-c2ccc(C#N)c(Cl)c2)n1)NC(=O)c1cc(C(C)O)[nH]n1 (stereo not drawn) + Cc1nc(NC(=O)N2CCCC2C(N)=O)sc1-c1ccnc(C(C)(C)C(F)(F)F)c1 , the logged viability, T/C turned out to be 92.4

So for CNC(=O)c1ccc(N2C(=S)N(c3ccc(C#N)c(C(F)(F)F)c3)C(=O)C2(C)C)cc1F + Cc1nc(NC(=O)N2CCCC2C(N)=O)sc1-c1ccnc(C(C)(C)C(F)(F)F)c1 , the logged viability, T/C turned out to be 90.1

New cases:
So for C=CC(=O)N1CCN(c2nc(=O)n(-c3c(C)ccnc3C(C)C)c3nc(-c4c(O)cccc4F)c(F)cc23)C(C)C1 (stereo not drawn) + Cc1nc(NC(=O)N2CCCC2C(N)=O)sc1-c1ccnc(C(C)(C)C(F)(F)F)c1 , the logged viability, T/C turned out to be 92.2
